Recorded kon values for a group of binders are listed next.
# Assayed Target: recombinant human CD38 (human, UniProt P28907 43-300, limits assumed)
# Method Description: SPR (Biacore 8K), antibody captured, antigen injected;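 further: antibodies held on a CM5 chip through anti-human IgG Fc, antigen in 3-fold serial dilutions, 1 min association then 10 min dissociation at 25 °C, 1:1 Langmuir global fit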
Assay Endpoint: kon (M⁻¹ s⁻¹)

INSERT INTO assay_data (binder, unit_tag, number) VALUES
  ('17F7 (antibody, human IgG1, kappa, V domains shown, Rabbit-human chimeric anti-CD38: rabbit VH and VL on human IgG1 and kappa constant regions) VH: QSVEESGGRLVTPGTPLTLTCTASGFSLSSYYMSWVRQAPGKGLEWIGFISKTAITYYASWARGRFTISKTSTAVDLKITSPTTEDTATYFCARVDAYSAGDLWGPGTLVTVSS VL: AQVLTQTPSSVSAAVGGTVTINCQASQSVYSDNRLSWFQQKSGQPPKLLIYSTSSLASGVPSRFSGSGSGTQFTLTISGVQSDDAASYYCQGEFICTSADCFVFGGGTEVVVKR', 'M⁻¹ s⁻¹', 500000),
  ('22H6 (antibody, human IgG1, kappa, V domains shown, Rabbit-human chimeric anti-CD38: rabbit VH and VL on human IgG1 and kappa constant regions) VH: QSVEESGGRLVTPGTPLTLTCTVSGFSLSNNAISWVRQAPGKGLQWIGSIYGSGNTYYATWAKGRFTVSKTSTTVDLKINSPTTEDTATYFCAREGAGSSWGFNLWGPGTLVTVSS VL: AQVLTQTASSVSAAVGGTVTISCQSSESVYKNNYLSWYQQKPGQPLKCLIYSASTLASGVPSRFKGSGSGTQFTLTISDLESDDAATYYCAGGYSGNINGFGGGTEVVVKR', 'M⁻¹ s⁻¹', 321000),
  ('18E4 (antibody, human IgG1, kappa, V domains shown, Rabbit-human chimeric anti-CD38: rabbit VH and VL on human IgG1 and kappa constant regions) VH: QSLEESGGDLVKPGASLTLTCTASGFSFNNYWICWIRQAPGKGLEWVACIYSPSGDIKYYANWAKGRFTVSKTSSTTVTLQMTSLTGADTATYFCARELSGSSYEGYFESWGPGTLVTVSS VL: AQVLTQTPSSVSAAVGGTVTINCQCSQSVYGHNWLAWYQHKPGQPPKLLMYRASNLASGVPSRFKGSGSGSQFTLTIGEVQSDDAATYYCQGYYNGGSYAFGGGTEVVVRR', 'M⁻¹ s⁻¹', 303000),
  ('23D1 (antibody, human IgG1, kappa, V domains shown, Rabbit-human chimeric anti-CD38: rabbit VH and VL on human IgG1 and kappa constant regions) VH: QELVESGGGLFQPGGSLALTCKASGFSLSNIYVMCWVRQAPGKGLEWIACIGTGSGDTDYATWAKGRFTISKTSSTTVTLQMTSLTAADTATYFCARDPGAGTWNLWGPGTLVTVSS VL: DIVMTQTPSSVEAAVGGTVTIKCQASQTIGSRLAWYQQKPGQPPKLLIYSASTLASGVSSRFKGSGSGTQFTLTISDLDSADAATYYCQSYYYTSTSYPNAFGGGTEVVVKR', 'M⁻¹ s⁻¹', 187000);
